Experiment Description: Metabolic stability in rat liver microsomes (RLM)
Assay type: in vitro ADME
Test Parameters: both sexes, pooled rat liver microsomes, pH 7.4, NADPH
Counter-ions that a name gives are not always drawn.
Response field label takes fulfilled when half-life at 1 μM is strictly below 10 min and not fulfilled in all other cases.

Molecule	Label Class
CN(C)CCc1c[nH]c2cccc(O)c12 [Psilocin, psilocin, reference compound]	not fulfilled
CN(C)CCc1c[nH]c2ccc(F)cc12 [Compound 5, hydrochloride]	fulfilled
COc1ccc2[nH]cc(CCN(C)C)c2c1 [Compound 5-MeO-DMT, 5-methoxy-N,N-dimethyltryptamine, reference compound]	not fulfilled

Does the reported half-life at 1 μM of CCN(C)CCc1c[nH]c2ccc(F)cc12 [Compound 4, hydrochloride] stay below 10 min? fulfilled

Does the reported half-life at 1 μM of CCCN(CC)CCc1c[nH]c2ccccc12 stay below 10 min? fulfilled

Does the reported half-life at 1 μM of CCN(C)CCc1c[nH]c2ccccc12 stay below 10 min? fulfilled

Does the reported half-life at 1 μM of CCN(C)CCc1c[nH]c2cccc(O)c12 stay below 10 min? not fulfilled

Does the reported half-life at 1 μM of CCCN(CC)CCc1c[nH]c2ccc(F)cc12 [Compound 3, hydrochloride] stay below 10 min? fulfilled

----------
Test System: 5-HT2A (Homo sapiens (Human))
Experiment Description: FLIPR Ca2+ flux agonist assay, 5-HT2A
Test Parameters: HEK293
Counter-ions that a name gives are not always drawn.
Measured Attribute: pEC50
Here pEC50 is given on a logarithmic scale as minus log10 of the concentration in mol/L.

Molecule	Measured Attribute	Value Reported
CCCN(CC)CCc1c[nH]c2ccccc12	pEC50	7.52
CCN(C)CCc1c[nH]c2cccc(O)c12	pEC50	7.82
CCCN(CC)CCc1c[nH]c2ccc(F)cc12 [Compound 3, hydrochloride]	pEC50	8.26

Shift focus to the following entry.
Tell me pEC50 reported for CCN(C)CCc1c[nH]c2ccc(F)cc12 [Compound 4, hydrochloride] 7.69

----------
Experiment Description: Metabolic stability in human liver microsomes (HLM)
Type: in vitro ADME
Test Parameters: both sexes, pooled human liver microsomes, pH 7.4, NADPH
Experimental: HLM Stability. Pooled HLM from adult male and female donors (Corning 452117) were used. Microsomal incubations were carried out in multi-well plates. […] Control incubations were performed by replacing the NADPH-cofactor system with PBS. Test compounds (1 μM, final solvent concentration 1.0%) were incubated with microsomes at 37° C. with constant shaking. Six time points over 60 minutes were analyzed, with 60 μL aliquots of the reaction mixture being drawn at each time point.
Counter-ions that a name gives are not always drawn.
Measured Attribute: microsomal CLint at 1 μM

Answered examples (5):
Molecule	microsomal CLint at 1 μM
CCCN(CC)CCc1c[nH]c2ccc(F)cc12 [Compound 3, hydrochloride]	106 µL/min/mg
CCN(C)CCc1c[nH]c2ccc(F)cc12 [Compound 4, hydrochloride]	28.9 µL/min/mg
CCN(C)CCc1c[nH]c2cccc(O)c12	< 9.6 µL/min/mg
CN(C)CCc1c[nH]c2ccc(F)cc12 [Compound 5, hydrochloride]	300 µL/min/mg
CCN(C)CCc1c[nH]c2ccccc12	11.2 µL/min/mg

Shift focus to the following entry.
Tell me microsomal CLint at 1 μM reported for CCCN(CC)CCc1c[nH]c2ccccc12 64.3 µL/min/mg

----------
Catalogue of compounds with associated 5-HT1A % Act @ Max Dose
Test System: 5-HT1A (Homo sapiens (Human))
Experiment Description: FLIPR Ca2+ flux agonist assay, 5-HT1A
Format: cell-based
Test Parameters: Ca2+ flux, CHO cells
Use % as the unit, but write only the number.

Answered examples (3):
Compound	Units Label	5-HT1A % Act @ Max Dose
CN(C)CCc1c[nH]c2cccc(O)c12 [Psilocin, psilocin, reference compound]	%	0.720
CCN(C)CCc1c[nH]c2cccc(O)c12	%	72.96
CCCN(CC)CCc1c[nH]c2ccccc12	%	75.5

Report its 5-HT1A % Act @ Max Dose with 5-HT1A (Homo sapiens (Human)) as the test system: CN(C)CCc1c[nH]c2ccccc12 [DMT, N,N-dimethyltryptamine, reference compound] 68.1

Data origin: patent US20240317683A1
